# Target: CAT1 (cationic amino acid transporter 1, CAT1/SLC7A1) (Homo sapiens)
# Construct: full-length human transporter stably transfected in HEK cells (HEK-CAT1); net uptake against HEK-VC vector control cells
# Run Description: cell-based
# Design: species or system HEK-CAT1 (HEK293 stably transfected); Inhibition of net CAT1-mediated [3H]-L-homoarginine (1 uM) uptake, 2.5 min, scintillation counting, vector control subtracted
# Reported Conditions: HEK293; L-homoarginine 1 uM as substrate; read-out: % Inhibition of L-homoarginine uptake at 20 µM
inhibition at 20 µM by entry:

Compound | Units Of Measure | inhibition at 20 µM
N[C@@H](Cc1ccc(O)c(O)c1)C(=O)O | % | 8.2
COc1ccc([C@@H]2Sc3ccccc3N(CCN(C)C)C(=O)[C@@H]2OC(C)=O)cc1 | % | 8.6
CCCCc1nc(Cl)c(CO)n1Cc1ccc(-c2ccccc2-c2nnn[nH]2)cc1 | % | 11
c1ccc([C@H]2CN3CCSC3=N2)cc1 | % | 19.6
CN(C)C(=O)C(CCN1CCC(O)(c2ccc(Cl)cc2)CC1)(c1ccccc1)c1ccccc1 [Loperamide] | % | 18.9
O=C(O)CCCc1ccc(N(CCCl)CCCl)cc1 | % | -18.6
CC(C)NCC(O)COc1ccc(COCCOC(C)C)cc1 (centres unmarked) | % | -11.1
CN(C)CCCN1c2ccccc2CCc2ccc(Cl)cc21 | % | -4.5
CC1(C)S[C@@H]2[C@H](NC(=O)[C@H](N)c3ccccc3)C(=O)N2[C@H]1C(=O)O | % | -2.5
CCc1oc2ccccc2c1C(=O)c1cc(Br)c(O)c(Br)c1 | % | -10.8
CCCCNc1cc(C(=O)O)cc(S(N)(=O)=O)c1Oc1ccccc1 [Bumetanide] | % | 8.9

====

inhibition at 20 µM by entry:
# Target: CAT1 (cationic amino acid transporter 1, CAT1/SLC7A1) (Homo sapiens, UniProt P30825)
# Construct: full-length human transporter stably transfected in HEK cells (HEK-CAT1); net uptake against HEK-VC vector control cells
# Sequence (P30825 whole entry): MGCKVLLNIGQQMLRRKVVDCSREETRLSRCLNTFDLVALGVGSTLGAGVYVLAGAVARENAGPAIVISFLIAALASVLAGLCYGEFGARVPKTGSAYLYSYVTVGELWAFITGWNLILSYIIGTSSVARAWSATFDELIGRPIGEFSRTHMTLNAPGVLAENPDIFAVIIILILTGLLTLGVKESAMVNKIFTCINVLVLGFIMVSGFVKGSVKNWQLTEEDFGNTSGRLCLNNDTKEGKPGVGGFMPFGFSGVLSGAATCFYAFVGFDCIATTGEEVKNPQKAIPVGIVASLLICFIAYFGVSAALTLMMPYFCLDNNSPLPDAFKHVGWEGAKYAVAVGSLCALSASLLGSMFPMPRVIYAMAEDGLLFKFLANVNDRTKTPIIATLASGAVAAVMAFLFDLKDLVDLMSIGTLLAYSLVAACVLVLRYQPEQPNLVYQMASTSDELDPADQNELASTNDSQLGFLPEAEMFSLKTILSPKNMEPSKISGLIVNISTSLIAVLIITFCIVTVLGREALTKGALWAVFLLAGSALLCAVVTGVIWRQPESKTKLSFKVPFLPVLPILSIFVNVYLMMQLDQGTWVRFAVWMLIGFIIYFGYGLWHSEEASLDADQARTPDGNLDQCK
# Run Description: cell-based
# Set-up: species or system HEK-CAT1 (HEK293 stably transfected); Inhibition of net CAT1-mediated [3H]-L-homoarginine (1 uM) uptake, 2.5 min, scintillation counting, vector control subtracted
# Reported Conditions: HEK293; L-homoarginine 1 uM as substrate; read-out: % Inhibition of L-homoarginine uptake at 20 µM

Molecule | inhibition at 20 µM (%)
N=C(N)NC(=O)c1nc(Cl)c(N)nc1N [Amiloride] | 1.5
CCCC1O[C@@H]2C[C@H]3[C@@H]4CCC5=CC(=O)C=C[C@]5(C)[C@H]4[C@@H](O)C[C@]3(C)[C@]2(C(=O)CO)O1 (stereo partly shown) [Budesonide] | -9.7
CN1CCOC(c2ccccc2)c2ccccc2C1 (stereo not shown) | -8.3
CO[C@H]1/C=C/O[C@@]2(C)Oc3c(C)c(O)c4c(O)c(c(/C=N/N5CCN(C)CC5)c(O)c4c3C2=O)NC(=O)/C(C)=C\C=C\[C@H](C)[C@H](O)[C@@H](C)[C@@H](O)[C@@H](C)[C@H](OC(C)=O)[C@@H]1C | -5.6
Cc1nnc2n1-c1ccc(Cl)cc1C(c1ccccc1)=NC2 | -4.3
CC1(C)S[C@@H]2[C@H](NC(=O)[C@H](N)c3ccc(O)cc3)C(=O)N2[C@H]1C(=O)O | 13.3
CN1CCC(=C2c3ccccc3CC(=O)c3sccc32)CC1 | 7

====

inhibition at 20 µM by entry:
# Target: CAT1 (cationic amino acid transporter 1, CAT1/SLC7A1) (Homo sapiens, UniProt P30825)
# Construct: full-length human transporter stably transfected in HEK cells (HEK-CAT1); net uptake against HEK-VC vector control cells
# Run Description: cell-based
# Design: species or system HEK-CAT1 (HEK293 stably transfected); Inhibition of net CAT1-mediated [3H]-L-homoarginine (1 uM) uptake, 2.5 min, scintillation counting, vector control subtracted
# Reported Conditions: HEK293; L-homoarginine 1 uM as substrate; read-out: % Inhibition of L-homoarginine uptake at 20 µM
Measure: inhibition at 20 µM (%)

Molecule | Measure | Numeric Value
Cc1cc(=O)n(-c2ccccc2)n1C [Antipyrine] | inhibition at 20 µM | -8.2
C[C@H]1O[C@@H](O[C@H]2[C@@H](O)C[C@H](O[C@H]3[C@@H](O)C[C@H](O[C@H]4CC[C@@]5(C)[C@H](CC[C@@H]6[C@@H]5CC[C@]5(C)[C@@H](C7=CC(=O)OC7)CC[C@]65O)C4)O[C@@H]3C)O[C@@H]2C)C[C@H](O)[C@@H]1O [Digitoxin] | inhibition at 20 µM | -7.2
CC12CC3CC(C)(C1)CC(N)(C3)C2 [Memantine] | inhibition at 20 µM | -3.9
CCOc1nc2cccc(C(=O)O)c2n1Cc1ccc(-c2ccccc2-c2nnn[nH]2)cc1 [Candesartan] | inhibition at 20 µM | 12.6
CC(C)NCC(O)COc1cccc2ccccc12 (stereo not shown) [Propranolol] | inhibition at 20 µM | -21.6
CC(CN1c2ccccc2Sc2ccccc21)N(C)C (stereo not shown) [Promethazine] | inhibition at 20 µM | 4.3
C[C@@H](O)[C@H]1C(=O)N2C(C(=O)O)=C(S[C@@H]3CN[C@H](C(=O)Nc4cccc(C(=O)O)c4)C3)[C@H](C)[C@H]12 [Ertapenem] | inhibition at 20 µM | -28.5

====

# Target: CAT1 (cationic amino acid transporter 1, CAT1/SLC7A1) (Homo sapiens, UniProt P30825)
# Construct: full-length human transporter stably transfected in HEK cells (HEK-CAT1); net uptake against HEK-VC vector control cells
# Run Description: cell-based
# Parameters: species or system HEK-CAT1 (HEK293 stably transfected); Inhibition of net CAT1-mediated [3H]-L-homoarginine (1 uM) uptake, 2.5 min, scintillation counting, vector control subtracted
# Reported Conditions: HEK293; L-homoarginine 1 uM as substrate; read-out: % Inhibition of L-homoarginine uptake at 20 µM

Compound | inhibition at 20 µM [%]
NC(=O)N1c2ccccc2C=Cc2ccccc21 [Carbamazepine] | 18.9
C[C@H](CS)C(=O)N1CCC[C@H]1C(=O)O | 0.1
CC(=O)S[C@@H]1CC2=CC(=O)CC[C@]2(C)[C@H]2CC[C@@]3(C)[C@@H](CC[C@@]34CCC(=O)O4)[C@H]12 | -3.9
COc1ccc2c(c1)[C@]13CCCC[C@@H]1[C@H](C2)N(C)CC3 | -0.5
C=CC[C@@H]1/C=C(\C)C[C@H](C)C[C@H](OC)[C@H]2O[C@@](O)(C(=O)C(=O)N3CCCC[C@H]3C(=O)O[C@H](/C(C)=C/[C@@H]3CC[C@@H](O)[C@H](OC)C3)[C@H](C)[C@@H](O)CC1=O)[C@H](C)C[C@@H]2OC | -10.3
C#C[C@]1(O)CC[C@H]2[C@@H]3CCc4cc(O)ccc4[C@H]3CC[C@@]21C | 8.2
C[C@]12CCC(=O)C=C1CC[C@@H]1[C@@H]2[C@@H](O)C[C@@]2(C)[C@H]1CC[C@]2(O)C(=O)CO [Hydrocortisone] | 13.9

====

# Target: CAT1 (cationic amino acid transporter 1, CAT1/SLC7A1) (Homo sapiens)
# Construct: full-length human transporter stably transfected in HEK cells (HEK-CAT1); net uptake against HEK-VC vector control cells
# Run Description: cell-based
# Parameters: species or system HEK-CAT1 (HEK293 stably transfected); Inhibition of net CAT1-mediated [3H]-L-homoarginine (1 uM) uptake, 2.5 min, scintillation counting, vector control subtracted
# Reported Conditions: HEK293; L-homoarginine 1 uM as substrate; read-out: % Inhibition of L-homoarginine uptake at 200 µM
inhibition at 200 µM by entry:

Molecule | inhibition at 200 µM [%]
NC12CC3CC(CC(C3)C1)C2 | -19.7
CCOc1nc2cccc(C(=O)O)c2n1Cc1ccc(-c2ccccc2-c2nnn[nH]2)cc1 | -12.6
CNCCCN1c2ccccc2CCc2ccccc21 | 11.6
COCCc1ccc(OCC(O)CNC(C)C)cc1 (stereo not shown) | 0.3
CCOC(=O)C1=C(C)NC(C)=C(C(=O)OC)C1c1cccc([N+](=O)[O-])c1 (stereo not shown) | 15.2
CN1CCOC(c2ccccc2)c2ccccc2C1 (stereo not shown) | -11.6
CCOC(=O)[C@H](CCc1ccccc1)N[C@@H](C)C(=O)N1[C@H](C(=O)O)C[C@@H]2CCC[C@@H]21 | -6.5
C[C@H]1c2cccc(O)c2C(=O)C2=C(O)[C@]3(O)C(=O)C(C(N)=O)=C(O)[C@@H](N(C)C)[C@@H]3[C@@H](O)[C@@H]21 | 9.6
C[C@@H]1CCC[C@H](C)N1NC(=O)c1ccc(Cl)c(S(N)(=O)=O)c1 [Clopamide] | 14.3
C[C@@H](O)[C@H]1C(=O)N2C(C(=O)O)=C(S[C@@H]3CN[C@H](C(=O)N(C)C)C3)[C@H](C)[C@H]12 | -13.6
CN(C)CCCC1(c2ccc(F)cc2)OCc2cc(C#N)ccc21 (stereo not shown) | 29.6
NCCCC[C@H](N[C@@H](CCc1ccccc1)C(=O)O)C(=O)N1CCC[C@H]1C(=O)O | -11.4
CCc1oc2ccccc2c1C(=O)c1cc(Br)c(O)c(Br)c1 | -23.2
O=C(O)c1cc(-c2ccc(F)cc2F)ccc1O | -20
CC[C@H]1OC(=O)[C@H](C)[C@@H](O[C@H]2C[C@@](C)(OC)[C@@H](O)[C@H](C)O2)[C@H](C)[C@@H](O[C@@H]2O[C@H](C)C[C@H](N(C)C)[C@H]2O)[C@](C)(OC)C[C@@H](C)C(=O)[C@H](C)[C@@H](O)[C@]1(C)O | -13.6
CC(C)Cc1ccc(C(C)C(=O)O)cc1 (stereo not shown) | -26.1
CNCC[C@H](Oc1cccc2ccccc12)c1cccs1 | 11.9
C[C@]12C=CC(=O)C=C1CC[C@@H]1[C@@H]2C(=O)C[C@@]2(C)[C@H]1CC[C@]2(O)C(=O)CO | 13.2
CC(=O)N[C@@H](CS)C(=O)O | 7.5
C[C@@H](O)[C@H]1C(=O)N2C(C(=O)O)=C(S[C@@H]3CN[C@H](C(=O)Nc4cccc(C(=O)O)c4)C3)[C@H](C)[C@H]12 | -15.1
Cc1ccc(NC(=O)c2ccc(CN3CCN(C)CC3)cc2)cc1Nc1nccc(-c2cccnc2)n1 | -20.9
N=C(N)NC(=O)c1nc(Cl)c(N)nc1N [Amiloride] | 12.6
COc1ccccc1OCCNCC(O)COc1cccc2[nH]c3ccccc3c12 (stereo not shown) | -1.4
CN(C)CCC=C1c2ccccc2CCc2ccccc21 | 29.7
O=C(O[C@H]1C[C@H]2CC[C@@H](C1)[N+]21CCCC1)C(O)(c1ccccc1)c1ccccc1 [Trospium Chloride] | -22.5
N[C@@H](Cc1ccc(O)c(O)c1)C(=O)O | 30.4
CNC(=C[N+](=O)[O-])NCCSCc1ccc(CN(C)C)o1 | 6.8
CO/N=C(\C(=O)N[C@@H]1C(=O)N2C(C(=O)O)=C(COC(N)=O)CS[C@H]12)c1ccco1 | -8.5
CN/C(=N\CCSCc1nc[nH]c1C)NC#N | -31.2
CC(=O)S[C@@H]1CC2=CC(=O)CC[C@]2(C)[C@H]2CC[C@@]3(C)[C@@H](CC[C@@]34CCC(=O)O4)[C@H]12 | -11.5
C[C@]12CC[C@@H]3c4ccc(O)cc4CC[C@H]3[C@@H]1CC[C@@H]2O | -13.7
CNCCC(Oc1ccc(C(F)(F)F)cc1)c1ccccc1 (stereo not shown) | 25.6
C#C[C@]1(O)CC[C@H]2[C@@H]3CCc4cc(O)ccc4[C@H]3CC[C@@]21C | -10.1
Clc1ccccc1CN1CCc2sccc2C1 | 31.4
